Every entry's value here was drawn from PubChem BioAssay (NCATS).

# test-name: qHTS profiling of the MIPE4 collection as inhibitors of Plasmodium falciparum (DD2) proliferation (AID 743345)
# test-conditions: P. falciparum Dd2 in erythrocytes, SYBR Green DNA, 72 h; at 28.5 µM (top of the series) unless noted
Grouping by measured parasite growth remaining, % of DMSO control (lower = more inhibition) is done with the following cut points: one = under 8%, two = from 8% up to 80%, three = 80% and over

[in] For this molecule, which bin applies? `CCN1CCN(Cc2ccc(-c3cc4c(N[C@H](C)c5ccccc5)ncnc4[nH]3)cc2)CC1`
[out] two

[in] For this molecule, which bin applies? `CCOc1cc2ncc(C#N)c(Nc3ccc(F)c(Cl)c3)c2cc1NC(=O)C=CCN(C)C`
[out] one

[in] For this molecule, which bin applies? `CC(C)c1ccccc1Cc1cc(C(=O)Nc2ccc(S(=O)(=O)c3ccccc3C(C)(C)C)cc2)c(O)c(O)c1O`
[out] one

[in] For this molecule, which bin applies? `COC(=O)Nc1nc2ccc(C(=O)c3ccc(F)cc3)cc2[nH]1`
[out] three

[in] For this molecule, which bin applies? `CNC(=O)c1ccc(-c2cnc3ncc(Cc4ccc5ncccc5c4)n3n2)cc1F`
[out] two

[in] For this molecule, which bin applies? C[C@]12CC[C@H](O)CC1=CCC1C2CC[C@]2(C)C(n3cnc4ccccc43)=CCC12 (some centres undefined)
[out] two

[in] For this molecule, which bin applies? `N#Cc1c(O)c2c(-c3ccc(-c4ccccc4O)cc3)csc2[nH]c1=O`
[out] three

[in] For this molecule, which bin applies? `c1nc2nc(Nc3ccc(N4CCOCC4)cc3)nc(NC3CCCCC3)c2[nH]1`
[out] two

[in] For this molecule, which bin applies? `CC[C@@]1(O)C(=O)OCc2c1cc1n(c2=O)Cc2cc3cc(O)ccc3nc2-1`
[out] two

[in] For this molecule, which bin applies? `CCCCCCCCCC(=O)N[C@@H](Cc1c[nH]c2ccccc12)C(=O)N[C@H](CC(N)=O)C(=O)N[C@@H](CC(=O)O)C(=O)N[C@@H]1C(=O)NCC(=O)N[C@@H](CCCN)C(=O)N[C@@H](CC(=O)O)C(=O)N[C@H](C)C(=O)N[C@@H](CC(=O)O)C(=O)NCC(=O)N[C@H](CO)C(=O)N[C@@H]([C@@H](C)CC(=O)O)C(=O)N[C@@H](CC(=O)c2ccccc2N)C(=O)O[C@@H]1C`
[out] three

[in] For this molecule, which bin applies? `Nc1cccc(-c2cc3c(Oc4cccc(O)c4)ncnc3[nH]2)c1`
[out] three

[in] For this molecule, which bin applies? `COc1ccc(-n2nc(C(N)=O)c3c2C(=O)N(c2ccc(N4CCCCC4=O)cc2)CC3)cc1`
[out] three

[in] For this molecule, which bin applies? `Cc1nc(Nc2n[nH]c3c2CN(C(=O)N[C@H](CN(C)C)c2ccccc2)C3(C)C)c2sccc2n1`
[out] one

[in] For this molecule, which bin applies? `C=CC(=O)Nc1cc2c(Nc3ccc(F)c(Cl)c3)ncnc2cc1OCCCN1CCOCC1`
[out] two

[in] For this molecule, which bin applies? `CC(=O)Nc1nc(C)c(-c2ccc(Cl)c(S(=O)(=O)NCCO)c2)s1`
[out] one

[in] For this molecule, which bin applies? `OCCCNc1cc(-c2ccnc(Nc3cccc(Cl)c3)n2)ccn1`
[out] two

[in] For this molecule, which bin applies? CCOc1ccccc1OCCNC(C)Cc1ccc(OC)c(S(N)(=O)=O)c1 (centres undefined)
[out] three

[in] For this molecule, which bin applies? `C#Cc1cccc(Nc2ncnc3cc(OC)c(OCCCCCCC(=O)NO)cc23)c1`
[out] one
